Each recorded value in this set is attributed to patent US11365192B2.

# target entity: 20-HETE producing enzymes, human kidney microsome
# assay summary: Inhibition test against 20-HETE producing enzymes using human kidney microsomes (LC-MS/MS)
# assay context: human kidney microsome 250 μg/mL protein, 20 μM arachidonic acid, 37° C. 45 minutes, LC-MS/MS
pIC50: −log10 of the molar value.
reported metric: pIC50

Examples from the recorded data:
CC(=O)N1CCN(CCOc2ccc(-c3ccn[nH]3)cc2)CC1 [Compound A, reference compound] has a reported pIC50 of 6.39

CC(C)(OCCCCCCCOc1ccc(-c2ccn[nH]2)nc1)C(=O)O has a reported pIC50 of 7.74

CCOC(=O)N1CCN(CCOc2ccc(-c3ccn[nH]3)cn2)CC1 [Compound B, reference compound] has a reported pIC50 of 4.81

1 = O=C(O)C1(CCCCCCCCOc2ccc(-c3ccn[nH]3)nc2)COC1
2 = O=C(O)C1CCc2ccc(COc3ccc(-c4ccn[nH]4)nc3)cc2O1 (centres unmarked)
// returns 1 or 2 , whichever has the lower pIC50 State the label of the item chosen.
2

1 = O=C(O)C1(OCCCCCCCOc2ccc(-c3ccn[nH]3)nc2)CCC1
2 = O=C(O)C1CC1c1cccc(COc2ccc(-c3ccn[nH]3)nc2)c1 (single isomer, unassigned) [Example 26-2]
3 = O=C(O)C1CCCN(S(=O)(=O)c2cccc(COc3ccc(-c4ccn[nH]4)nc3)c2)C1 (centres unmarked)
List items by pIC50 in falling order. Answer by listing the labels in the order asked for.
1, 3, 2
